Listing of entries alongside the reported PRNT Emax, CPXV MV.
tgt: CPXV ortholog of L1 (cowpox virus)
assayProcedure: cell-based or functional assay

binder | PRNT Emax, CPXV MV [%]
VACV-33 (antibody, V domains shown) VH: QLQLQESGPGLVKPSETLSLTCTVSGGSISSGGYYWGWIRQPPGKGLEWIASIYYSGSTYYNPSLKSRVTISVDTSKTQFSLKLSSVTAADTAVYYCARQSSSTGGFHYWGQGTLVTVSS VL: QSVLTQPPSVSGAPGQRVTISCTGSSSNIGAGYDVHWYQHLPGTAPKLLIYGNSNRPSGVPDRFSGSKSGTSASLAITGLQAEDEANYYCQSYDSSLSGREVFGGGTQLTVL | 74
MPXV-87 (antibody, V domains shown) V domain 1: QVQLVQSGAEVKKPGASVKVSCKASGYTFTSHGIIWVRQAPGQGLEWMGWISVYNDNTNSAQKFQDRVTMTTATSTSTAYMELRSLRSDDTAVYYCARSSSGPRYYYYGMDVWGQGTTSP V domain 2: QSVVTQPPSVSGAPGQRVTISCTGSSSNIGAGYAVHWYYQLPGIAPKLLIFGNNNRPSGVPDRFSGSKSGTSASLAITGLQAEDEADYYCQSYDSSLSGWVFGGGTQVTVL | 63
MPXV-26 (antibody, V domains shown) VH: QVQLVQSGGGLIQPGGSLRLSCVVSGFNVATNYMSWVRQAPGKGLEWVSVIYSGGSTYYADSVKGRFTISRDNSKNTVFLQMNSLRPEDTAAYYCAKGGGLGLDYWGQGTLVTVSS VL: QSALTQPPSASGSPGQSVTITCTGSSSDVGGYNYVSWYQQHPGKAPKVVIYEVNKRPSGVPHRFSGSKSGNTASLTVSGLQAEDEADYYCSSYAGTETVAFGGGTKLTVL | 99
MPXV-83 (antibody, V domains shown) VH: QVQLVESGGGVVQPGRSLRLSCAASGFTFSSYSMHWVRQAPGKGLEWVAVISFDGRSNYYADSVRGRFTISRDNSKKTMYLQMNSLRLADTAVYYCARGGIGAPDPRNGLEVWGRGAPVTLSS VL: DIQMIQSPSSLSASVGDRVTISCQATQDISNSVNWYQQKPGKAPKLLIYDASTLETGVPSRFSGGGSGTHFTFTISSLQPEDIATYYCQQFHSLPPTFGQGPKGISK | 69
